# System: Streptococcus 10342
# ASSAY_PROTOCOL: MIC broth microdilution
# Type: cell-based
# TEST_SETTINGS: 37° C., 24 h, read-out: Minimum Inhibitory Concentration, MIC
Overview of recorded MIC for various molecules
Write down the numeric answer in µM and omit the unit.

// known answers, use as guide
molecule="Nc1nc(-c2ccccc2)nc2c1cnn2-c1ccccc1 [Compound 38]" u=µM experimental_value=131
molecule="Cc1c(-c2ccc(C(F)(F)F)cc2)[nH]c2c(-c3ccc(Cl)cc3Cl)c(C3CC3)nn2c1=O [Compound 21]" u=µM experimental_value=1.35
molecule="Cc1nn2c(=O)cc(-c3ccc(C(F)(F)F)nc3)[nH]c2c1-c1ccc(Cl)cc1Cl [Compound 8]" u=µM experimental_value=0.3

Dear colleague, I am looking for the recorded MIC of the following molecule: Cc1nn2c(=O)cc(-c3ccc(C(F)(F)F)cc3)[nH]c2c1-c1ccc(Cl)cc1Cl [Compound 7] 0.25

---

# System: Streptococcus pneumoniae 6303 (PRSP)
# ASSAY_PROTOCOL: microbe, parasite or virus in culture
# Assay type: cell-based
# TEST_SETTINGS: 24 h, read-out: Minimum Inhibitory Concentration, MIC
// thresholds for MIC classes: low-valued: < 0.3 µM; mid-valued: ≥ 0.3 µM and < 100 µM; high-valued: ≥ 100 µM

Examples with answers:
molecule="Cc1nn2c(=O)c(C)c(-c3ccc(C#N)cc3)[nH]c2c1-c1ccc(C(F)(F)F)cc1 [Compound 33]" tested_target="Streptococcus pneumoniae 6303 (PRSP)" assigned_class=mid-valued
molecule="Cc1nn2c(=O)cc(-c3ccc(C(F)(F)F)cc3)[nH]c2c1-c1ccc(Cl)cc1Cl [Compound 7]" tested_target="Streptococcus pneumoniae 6303 (PRSP)" assigned_class=low-valued
molecule="CCc1nn2c(=O)cc(-c3ccc(C#N)cc3)[nH]c2c1-c1ccc(Cl)cc1Cl [Compound 5]" tested_target="Streptococcus pneumoniae 6303 (PRSP)" assigned_class=high-valued
molecule="O=C1C(c2ccccc2)C(O)=Nc2cc(-c3ccc(C(F)(F)F)cc3)nn21 (stereo not drawn) [Compound 42]" tested_target="Streptococcus pneumoniae 6303 (PRSP)" assigned_class=high-valued
molecule="Cc1nn2c(=O)cc(-c3ccc(C#N)cc3)[nH]c2c1-c1ccc(C(F)(F)F)cc1 [Compound 3]" tested_target="Streptococcus pneumoniae 6303 (PRSP)" assigned_class=mid-valued

Into which category would you place Cc1nn2c(=O)cc(-c3ccc(C(F)(F)F)nc3)[nH]c2c1-c1ccc(Cl)cc1Cl [Compound 8] ? mid-valued

Please do the same for CCc1nn2c(=O)c(C)c(-c3ccc(C(F)(F)F)cc3)[nH]c2c1-c1ccc(Cl)cc1Cl [Compound 23] as well. high-valued

Another molecule: Cc1c(-c2ccc(C#N)cc2)[nH]c2c(-c3ccc(Cl)cc3Cl)c(-c3ccccc3)nn2c1=O [Compound 70] low-valued

Please answer likewise for Cc1c(-c2ccc(C(F)(F)F)cc2)[nH]c2c(-c3ccc(Cl)cc3Cl)c(C3CC3)nn2c1=O [Compound 21] mid-valued

Moving on to the next molecule: Cc1nn2c(=O)cc(-c3ccc(C#N)cc3)[nH]c2c1-c1ccc(Cl)cc1Cl [Compound 10] low-valued

// next record Nc1nc(-c2ccccc2)nc2c1cnn2-c1ccccc1 [Compound 38] high-valued

How about O=c1[nH]c(-c2ccc(C(F)(F)F)cc2)nc2cc(Cl)ccc12 [Compound 14] ? high-valued

The reported numbers originate from patent US20120178915A1.
